Entry source: the Immune Epitope Database (IEDB)

Subject of test: HLA-B*57:01
Protocol: IEDB peptide-MHC binding, purified MHC/competitive/radioactivity; filed as Kd, often an IC50 or EC50 that approximates it; bounds were set here for any values at or beyond the usual limits of such assays
Assay setup: source organism: Dengue virus 2 Jamaica/1409/1983
Kd values by entry

Input sequence	Subject of test	Kd [nM]
NSSVNVSLTA	HLA-B*57:01	433
EAVEDSRFW	HLA-B*57:01	22.2
ASSMVNGVVR	HLA-B*57:01	1400

====

sequences and their reported pKd
Subject of test: HLA-A*33:01
Protocol: IEDB peptide-MHC binding, purified MHC/competitive/radioactivity; filed as Kd, often an IC50 or EC50 that approximates it; bounds were set here for any values at or beyond the usual limits of such assays
Assay setup: source organism: Vaccinia virus WR
pKd: −log10 of the molar value.
Endpoint label: pKd

Input sequence	Subject of test	Comparative sign	Quantitative readout
LLNSMMNRDK	HLA-A*33:01	≤	4.56
DVKVLAARLK	HLA-A*33:01	=	5.29
SAVFKDSFLR	HLA-A*33:01	=	6.43
FSCGLSLQDY	HLA-A*33:01	=	5.03
AAVTLNRIK	HLA-A*33:01	≤	4.57
ELNIVDEIIK	HLA-A*33:01	=	4.86
ALEYLSELK	HLA-A*33:01	≤	4.11
NFGTIILNK	HLA-A*33:01	=	5.81
IVNNQESNKY	HLA-A*33:01	≤	4.15
AVFKDSFLR	HLA-A*33:01	=	6.49
VMANNVKKK	HLA-A*33:01	≤	4.12
PVIVVPVIDR	HLA-A*33:01	=	5.04
GIFKNNDVR	HLA-A*33:01	≤	4.55
NFEALEATK	HLA-A*33:01	=	5.97
VVKLTAVCMK	HLA-A*33:01	=	5.57
AISKLGINY	HLA-A*33:01	=	5.07
FLDKSIHLTK	HLA-A*33:01	=	6.28
KIIAVFDSK	HLA-A*33:01	=	5.10
ESRDRKWLY	HLA-A*33:01	=	5.00
PIFSDLLKY	HLA-A*33:01	≤	4.11
MQKFTILEY	HLA-A*33:01	≤	4.26

====

Subject of test: HLA-B*15:01
Protocol: IEDB peptide-MHC binding, purified MHC/direct/fluorescence; filed as Kd, often an IC50 or EC50 that approximates it; bounds were set here for any values at or beyond the usual limits of such assays
Assay setup: source organism: Coxiella burnetii Q321
pKd: −log10 of the molar value.

Input sequence	pKd
IAFTRLFTV	≤ 4.70

====

Subject of test: HLA-B*39:01
Protocol: IEDB peptide-MHC binding, purified MHC/competitive/fluorescence; filed as Kd, often an IC50 or EC50 that approximates it; bounds were set here for any values at or beyond the usual limits of such assays
Assay setup: source organism: Escherichia coli str. K-12 substr. MG1655
Endpoint label: Kd (nM)

Input sequence	Quantity unit	Quantitative readout
AKIEAPLLL	nM	7.5

====

Subject of test: HLA-A*69:01
Protocol: IEDB peptide-MHC binding, purified MHC/direct/fluorescence; filed as Kd, often an IC50 or EC50 that approximates it; bounds were set here for any values at or beyond the usual limits of such assays
Assay setup: source organism: Vibrio vulnificus
pKd: −log10 of the molar value.

Input sequence	pKd
IQTHCEVGY	≤ 4.70
